These entries and their values trace back to the supplement of paper PMC3545927.

Target: furin, P09958;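 also: purified furin at 1:10 enzyme:substrate in 50 mM HEPES pH 7.5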
Sequence (P09958 whole entry): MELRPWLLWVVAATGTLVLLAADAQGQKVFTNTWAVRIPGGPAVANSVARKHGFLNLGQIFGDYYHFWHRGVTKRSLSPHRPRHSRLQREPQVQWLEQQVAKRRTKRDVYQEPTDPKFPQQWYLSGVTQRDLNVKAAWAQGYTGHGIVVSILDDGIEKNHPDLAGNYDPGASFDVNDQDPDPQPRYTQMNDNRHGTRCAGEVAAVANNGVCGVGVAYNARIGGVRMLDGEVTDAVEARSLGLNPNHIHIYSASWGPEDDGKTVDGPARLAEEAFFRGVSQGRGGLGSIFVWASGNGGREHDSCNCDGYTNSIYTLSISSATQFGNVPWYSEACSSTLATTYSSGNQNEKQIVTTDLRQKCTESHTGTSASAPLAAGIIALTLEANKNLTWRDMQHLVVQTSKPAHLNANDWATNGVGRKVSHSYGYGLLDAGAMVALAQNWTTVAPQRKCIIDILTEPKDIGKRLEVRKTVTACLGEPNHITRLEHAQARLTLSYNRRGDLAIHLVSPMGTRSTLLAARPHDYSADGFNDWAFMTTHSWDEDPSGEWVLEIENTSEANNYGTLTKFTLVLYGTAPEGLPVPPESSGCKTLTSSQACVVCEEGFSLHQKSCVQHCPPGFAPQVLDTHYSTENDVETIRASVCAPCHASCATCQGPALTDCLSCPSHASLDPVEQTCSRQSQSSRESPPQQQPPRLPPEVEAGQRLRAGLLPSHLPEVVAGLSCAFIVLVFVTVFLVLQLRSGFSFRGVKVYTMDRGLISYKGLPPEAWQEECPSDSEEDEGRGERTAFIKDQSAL
Assay: furin cleavage Z-score vs untreated control; higher = more cleavage, active = 3.5 or more, inactive = 1 or less, 8 variable residues between constant flanks
Details: 30 min
The other results are listed elsewhere or left out. How many sequences the whole screen found active is unknown.
measure: furin cleavage Z-score
Write the value as a bare number.

Record request: furin cleavage Z-score value, item CASSECTTPCAGNASASA [HC1143] 0.461

Record request: furin cleavage Z-score value, item CAYRARQRRAAGNASASA [FS-1295] 4.76

Record request: furin cleavage Z-score value, item CANTARQRRAAGNASASA [FS-1548] 8.92

Record request: furin cleavage Z-score value, item CALNNTRPPLAGNASASA [HC430] 1.95

Record request: furin cleavage Z-score value, item CAARLVVLATAGNASASA [HC831] -0.8

Next:
Record request: furin cleavage Z-score value, item CAGPGREDRFAGNASASA [FS-1590] 0.43

Record request: furin cleavage Z-score value, item CAYRARLSRGAGNASASA [FS-636] 2.96
